Data origin: ChEMBL document CHEMBL1759881

Tested on: RAW264.7
Experiment: Antiinflammatory activity in mouse RAW264.7 cells assessed as inhibition of LPS-induced nitric oxide release pretreated for 15 mins before LPS challenge measured after 24 hrs by Griess method
Format: functional, cell-based
reported endpoint: inhibition

Answered examples (4):
C=C1C[C@@]23CC[C@@H]4[C@](C)(C(=O)OC)CCC[C@@]4(C)C2=CC[C@@H]1C3 [GRANDIFLORENIC ACID METHYL ESTER]	Dose-dependent effect
C[C@@]12CCC[C@@](C)(C(=O)OCc3ccccc3)[C@H]1CC[C@@]1(CC(=O)O)CCCC[C@H]12	Dose-dependent effect
C[C@@]12CCC[C@@](C)(C(=O)OC[Si](C)(C)C)[C@H]1CC[C@]13CC(=O)O[C@H](CC[C@H]12)C3	Dose-dependent effect
C=C1[C@@H]2CC[C@H]3[C@]4(C)CCC[C@@](C)(C(=O)OC)[C@H]4CC[C@]3(C2)[C@H]1O	Dose-dependent effect

For record C[C@@]12CCC[C@@](C)(C(=O)OC[Si](C)(C)C)[C@H]1CC[C@@]1(CC(=O)O)CCCC[C@H]12 the listed inhibition is Dose-dependent effect
